Organism: Rattus norvegicus
Test: Hill coefficient for affinity to M3 muscarinic receptor of rat cerebral cortex
PARAMETER: nH
Enter the number alone.

Request: Request the reported nH associated with C[C@H]1O[C@@H](C[N+](C)(C)C)CC1=O.[I-]
Result: 1

Continuing:
Request: Request the reported nH associated with C[C@@H]1O[C@@H](C[N+](C)(C)C)CC1=O.[I-]
Result: 0.92

Request: What about this molecule? C[C@H]1O[C@H](C[N+](C)(C)C)CC1=O.[I-]
Result: 0.9

Request: What about this molecule? C[C@@H]1O[C@H](C[N+](C)(C)C)CC1=O.[I-]
Result: 0.78

---

Species on record: Rattus norvegicus
Test: In vitro potency against muscarinic preparation from rat bladder.
Format: functional
PARAMETER: EC50 (nM)
Give the number; nM is assumed, so skip it.

The examples below pair each entry with its known result.
Request: Request the reported EC50 associated with C[C@H]1O[C@H](C[N+](C)(C)C)CC1=O.[I-]
Result: 2000

Request: What about this molecule? C[C@@H]1O[C@@H](C[N+](C)(C)C)CC1=O.[I-]
Result: 105

Continuing:
Request: Request the reported EC50 associated with C[C@H]1O[C@@H](C[N+](C)(C)C)CC1=O.[I-]
Result: 3550

---

Species on record: Cavia porcellus
Assay: In vitro potency against muscarinic preparation from guinea pig atria
Assay type: functional
PARAMETER: pEC50
Quick note: pEC50 values are minus log10 of concentrations in mol/L.

Request: Request the reported pEC50 associated with C[C@@H]1O[C@H](C[N+](C)(C)C)CC1=O.[I-]
Result: 8.92

---

Species on record: Rattus norvegicus
Assay: Hill coefficient for affinity to M1 muscarinic receptor of rat cerebral cortex
PARAMETER: nH
Enter the number alone.

Request: Request the reported nH associated with C[C@@H]1O[C@H](C[N+](C)(C)C)CC1=O.[I-]
Result: 0.79

Request: What about this compound? C[C@H]1O[C@H](C[N+](C)(C)C)CC1=O.[I-]
Result: 0.89

Request: What about this compound? C[C@@H]1O[C@@H](C[N+](C)(C)C)CC1=O.[I-]
Result: 0.74

# evaluate next
Request: Request the reported nH associated with C[C@H]1O[C@@H](C[N+](C)(C)C)CC1=O.[I-]
Result: 1

---

Consider the following compounds and their measured nH readings.
Organism: Rattus norvegicus
Experiment: Hill coefficient for affinity to M2 muscarinic receptor of rat cerebral cortex
Enter the number alone.

The examples below pair each entry with its known result.
Request: Request the reported nH associated with C[C@H]1O[C@@H](C[N+](C)(C)C)CC1=O.[I-]
Result: 0.6

Request: What about this compound? C[C@H]1O[C@H](C[N+](C)(C)C)CC1=O.[I-]
Result: 0.63

Request: What about this compound? C[C@@H]1O[C@H](C[N+](C)(C)C)CC1=O.[I-]
Result: 0.58

# evaluate next
Request: Request the reported nH associated with C[C@@H]1O[C@@H](C[N+](C)(C)C)CC1=O.[I-]
Result: 0.58

Taken from ChEMBL document CHEMBL1126048.
